Tested on: Staphylococcus aureus
ASSAY: Antimicrobial activity against community-acquired methicillin resistant Staphylococcus aureus expressing PVL and mec type IV gene by broth microdilution method
Type: functional
ATTRIBUTE MEASURED: MIC

compound=CN(C)[C@@H]1C(O)=C(C(N)=O)C(=O)[C@@]2(O)C(O)=C3C(=O)c4c(O)cccc4[C@@](C)(O)[C@H]3C[C@@H]12 attribute_measured=MIC reported_result="≤ 0.5 µg/mL"
compound=CCC[C@@H]1C[C@@H](C(=O)N[C@@H]([C@H]2O[C@H](SC)[C@H](O)[C@@H](O)[C@H]2O)[C@H](C)Cl)N(C)C1 attribute_measured=MIC reported_result="≤ 0.25 µg/mL"
compound=CCCCCCCCCC(=O)N[C@@H](Cc1c[nH]c2ccccc12)C(=O)N[C@H](CC(N)=O)C(=O)N[C@@H](CC(=O)O)C(=O)N[C@@H]1C(=O)NCC(=O)N[C@@H](CCCN)C(=O)N[C@@H](CC(=O)O)C(=O)N[C@H](C)C(=O)N[C@@H](CC(=O)O)C(=O)NCC(=O)N[C@H](CO)C(=O)N[C@@H]([C@H](C)CC(=O)O)C(=O)N[C@@H](CC(=O)c2ccccc2N)C(=O)O[C@@H]1C attribute_measured=MIC reported_result="0.25 µg/mL"
compound="C[C@@H](O)[C@H]1C(=O)N2C(C(=O)O)=C(SCCNC=N)C[C@H]12 [IMIPENEM ANHYDROUS]" attribute_measured=MIC reported_result="≤ 0.5 µg/mL"

Values compiled from ChEMBL document CHEMBL1255268.
